molecular target: CYP3A4 (Homo sapiens, UniProt P08684); assay: Incubation of OA with recombinant CYP3A4 and CYP3A4 enzyme kinetics; assay type: in vitro ADME; settings: human, recombinant CYP3A4
Sequence (P08684 whole entry): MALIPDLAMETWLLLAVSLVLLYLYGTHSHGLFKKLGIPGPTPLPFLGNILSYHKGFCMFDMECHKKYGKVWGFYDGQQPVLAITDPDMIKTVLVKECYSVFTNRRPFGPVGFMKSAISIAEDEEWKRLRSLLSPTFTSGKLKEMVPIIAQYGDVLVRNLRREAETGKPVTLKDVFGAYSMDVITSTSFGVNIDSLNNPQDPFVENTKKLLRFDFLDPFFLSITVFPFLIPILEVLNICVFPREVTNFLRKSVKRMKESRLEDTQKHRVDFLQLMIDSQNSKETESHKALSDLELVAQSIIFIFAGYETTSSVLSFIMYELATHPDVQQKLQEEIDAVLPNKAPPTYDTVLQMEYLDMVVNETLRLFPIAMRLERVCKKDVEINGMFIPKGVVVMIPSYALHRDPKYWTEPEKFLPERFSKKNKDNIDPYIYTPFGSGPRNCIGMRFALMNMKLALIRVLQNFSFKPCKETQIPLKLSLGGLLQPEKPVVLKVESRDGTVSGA
EXPERIMENTAL_READOUT: Km (µM)
Kindly provide the numeric value in µM only, without the unit symbol.

# return Km of C=C1[C@@H](O)[C@@H]2O[C@]3(CC[C@H](/C=C/[C@@H](C)[C@@H]4CC(C)=C[C@@]5(O[C@H](C[C@@](C)(O)C(=O)O)CC[C@H]5O)O4)O3)CC[C@H]2O[C@@H]1[C@@H](O)C[C@H](C)[C@H]1O[C@@]2(CCCCO2)CC[C@H]1C [OA, Okadaic acid] (system: CYP3A4 (Homo sapiens, UniProt P08684))
73.4
